For each of the compounds below, state its cytotoxicity at 70.5 h.
# measurement-description: Human HepG2 cell viability assay in 384 well format
# Assay type: toxicity, cell-based
# Parameters: dose 125 nL, time 70.5 hour; concentration not given beside the values
# condition-label: HepG2 cells, read-out: Inhibition
Answer shape: numeric part, then the unit.

Noted for Cc1noc(C)c1CN1CCN(C)c2ncccc2C1 : its cytotoxicity at 70.5 h reads -5.95%

Value of cytotoxicity at 70.5 h reported for the compound Nc1nc(CC(=O)N2CCCC(CCc3cccc(F)c3)C2)cc(=O)[nH]1 (centres undefined) is -12.2%

Record CC(C(=O)N1CCn2cncc2C1)N1CCCC1 (centres undefined) , field cytotoxicity at 70.5 h: -0.791%

Record summary for O=C(NCCc1c[nH]c2ccccc12)C1CCC(Cn2cnnn2)CC1 (centres undefined) : reported cytotoxicity at 70.5 h = 19.8%

Query CCS(=O)(=O)N1Cc2nccn2CC(Cn2cncn2)C1 (centres undefined) yields cytotoxicity at 70.5 h of 0.16%

# compound CCn1cc(CN2CCC(c3[nH]ncc3S(C)(=O)=O)C2)cn1 (centres undefined) ; its cytotoxicity at 70.5 h = 0.805%

// field: cytotoxicity at 70.5 h; key: CN1[C@@H](C(=O)NCC2CC2)C[C@@H]2CN(Cc3ccco3)C[C@@H]21 ; value = -12.2%

Lab book: cytotoxicity at 70.5 h of O=C(c1cccc(S(=O)(=O)NCCCc2ncc[nH]2)c1)N1CCOCC1 noted as -9.14%

response.value for CCc1nc(CN2CCN(C(=O)C3(C#N)CCCCC3)CC2)cs1 (field: cytotoxicity at 70.5 h) = -0.0355%

compound CCCn1nc2c(cc1=O)CN(Cc1nc(CCOC)no1)CC2 , cytotoxicity at 70.5 h observed: -3.53%

cytotoxicity at 70.5 h in this record for Cc1noc(C)c1CN1CC2(CCCCN2c2cncnc2)CC1=O (centres undefined) : -3.04%

get_value(item= COC[C@]1(O)CCN(Cc2cnc(N(C)C)nc2)CC1(C)C , readout=cytotoxicity at 70.5 h) returns -18.8%

Cc1ccc(CN2CCc3ncnc(-c4cccnc4)c3CC2)o1 yielded cytotoxicity at 70.5 h of -5.88%

Sure, the documented cytotoxicity at 70.5 h for O=C(c1ccc(Cn2cc(Br)cn2)cc1)N1CCOCC1 is -7.67%

# compound CC(C)NC(=O)N[C@H]1C[C@@H](Cc2cc(CN3CCOCC3)on2)C1(C)C ; its cytotoxicity at 70.5 h = -8.22%

Sample CC1CN(C)c2ccccc2CN1CCn1cncn1 (centres undefined) ; cytotoxicity at 70.5 h observed: -0.327%

Summary for this compound, CN(CC(O)CO)c1nc(-c2cccnc2)nc2c1CCNC2 (centres undefined) : cytotoxicity at 70.5 h is -17.2%

// CC(C)c1cc(C(=O)N2CCC3(CC2)c2ccccc2[C@@H](N)[C@@H]3O)cs1 : cytotoxicity at 70.5 h value = -10.7%

Please fill in: cytotoxicity at 70.5 h reported for O=C(CCCc1ccccc1)N1CCCC(n2cncn2)C1 (centres undefined) = -4.48%

The compound CC(C)c1csc(C2CCCN(C(=O)c3ncccn3)C2)n1 (centres undefined) showed cytotoxicity at 70.5 h equal to 13%

cytotoxicity at 70.5 h measured on CC(Cn1cccn1)NCc1nc(-c2ccccc2Cl)no1 (centres undefined) = -19.9%

The compound COCc1nc(C(=O)NS(=O)(=O)c2ccc(C)c(C)c2)cs1 showed cytotoxicity at 70.5 h equal to 25.8%

Noted for Cc1ccc2c(c1C)OCC2NCc1ccc(C#N)cc1 (centres undefined) : its cytotoxicity at 70.5 h reads 16.8%

What the record says about C1CN(CC2CC2)C(COCC2CC2)c2nnn(CC3CC3)c21 (centres undefined) : cytotoxicity at 70.5 h is -12.9%

Provenance of the data: ChEMBL document CHEMBL3507680
